Tested on: MN-60 (B-Lymphoblastic Leukemia)
Assay: combination Emax (second highest fraction inhibited in the dose matrix, 72 h); higher = more inhibition; extreme values may be limits of the assay
Would you kindly list combination Emax for each of these compounds?
Kindly provide the number alone.

State the recorded combination Emax for this entry: C[C@@H]1COCCN1c1cc(C2([S@](C)(=N)=O)CC2)nc(-c2ccnc3[nH]ccc23)n1 [AZD6738] + O=C(c1cc(Cc2n[nH]c(=O)c3ccccc23)ccc1F)N1CCN(C(=O)C2CC2)CC1 [Olaparib] (first compound max 10 µM, 7x7, partner max 10 µM) 0.528

I have this compound here, COc1cccc2c1C(=O)c1c(O)c3c(c(O)c1C2=O)C[C@@](O)(C(=O)CO)C[C@@H]3O[C@H]1C[C@H](N)[C@H](O)[C@H](C)O1 [Doxorubicin] + Cc1cc2ncnn2cc1Nc1ncc2c(n1)n(C1CCOCC1)c(=O)n2C [AZD7648] (first compound max 1 µM, 7x7, partner max 10 µM) , and I need its recorded combination Emax. 0.833

Given the entry CC1(C)CCC(CN2CCN(c3ccc(C(=O)NS(=O)(=O)c4ccc(NCC5CCOCC5)c([N+](=O)[O-])c4)c(Oc4cnc5[nH]ccc5c4)c3)CC2)=C(c2ccc(Cl)cc2)C1 [Venetoclax] + C[C@@H](Nc1cc(F)cc(F)c1)c1cc(C(=O)N(C)C)cc2c(=O)cc(N3CCOCC3)oc12 [AZD8186] (first compound max 1 µM, 7x7, partner max 3 µM) , report its measured combination Emax. 0.418

Need combination Emax of CN(CCO)CC[C@H](CSc1ccccc1)Nc1ccc(S(=O)(=O)NC(=O)c2ccc(N3CCC([C@@H](O)c4ccccc4-c4ccc(Cl)cc4)CC3)cc2)cc1S(=O)(=O)C(F)(F)F [AZD4320] + Nc1ccn([C@@H]2O[C@H](CO)[C@@H](O)C2(F)F)c(=O)n1 [Gemcitabine] (first compound max 1 µM, 7x7, partner max 0.3 µM) , thanks. 0.493

Would you mind telling me what combination Emax value was observed for C=CCn1c(=O)c2cnc(Nc3ccc(N4CCN(C)CC4)cc3)nc2n1-c1cccc(C(C)(C)O)n1 [AZD1775] + Nc1ccn([C@@H]2O[C@H](CO)[C@@H](O)C2(F)F)c(=O)n1 [Gemcitabine] (first compound max 1 µM, partner max 0.3 µM) ? 0.653

Would you kindly share the measured combination Emax for CN(C)CCCOc1ccc(-c2ccc3ncc4c(c3c2)n(C2CCOCC2)c(=O)n4C)cn1 [AZD0156] + C[C@@H]1COCCN1C2=NC(=NC(=C2)C3(CC3)[S@](=N)(=O)C)C4=C5C=CNC5=NC=C4 [AZD6738] (first compound max 1 µM, 7x7, partner max 10 µM) ? 0.402

// combination Emax lookup, key: C[C@@H](Nc1cc(F)cc(F)c1)c1cc(C(=O)N(C)C)cc2c(=O)cc(N3CCOCC3)oc12 [AZD8186] + C1CN(CCC1(C(=O)N[C@@H](CCO)C2=CC=C(C=C2)Cl)N)C3=NC=NC4=C3C=CN4 [AZD5363] (first compound max 10 µM, 7x7, partner max 10 µM) 0.193

###

Test system: COR-L279 (Small Cell Lung Carcinoma)
Experiment: combination Emax (second highest fraction inhibited in the dose matrix, 72 h); higher = more inhibition; extreme values may be limits of the assay
Would you mind telling me the reported combination Emax of each entry?
No unit in the answer, please; the number alone is enough.

What value of combination Emax has been recorded for this entry: COc1cccc2c1C(=O)c1c(O)c3c(c(O)c1C2=O)C[C@@](O)(C(=O)CO)C[C@@H]3O[C@H]1C[C@H](N)[C@H](O)[C@H](C)O1 [Doxorubicin] + Cc1cc2ncnn2cc1Nc1ncc2c(n1)n(C1CCOCC1)c(=O)n2C [AZD7648] (first compound max 1 µM, 7x7, partner max 10 µM) 1

Find the recorded combination Emax belonging to C[C@@H](Oc1cc(-c2cnn(C3CCNCC3)c2)cnc1N)c1c(Cl)ccc(F)c1Cl [Crizotinib] + CC1=C(C(=CC=C1)Cl)NC(=O)C2=CN=C(S2)NC3=CC(=NC(=N3)C)N4CCN(CC4)CCO [Dasatinib] (first compound max 10 µM, 7x7, partner max 2 µM) and report it. 0.839

So what does the record say about combination Emax for Cc1c2c(nn1C)CSCc1cc(n(C)n1)CSc1cc(c3ccccc3c1)OCCCc1c(C(=O)O)n(C)c3c-2c(Cl)ccc13 [AZD5991] + C[C@@H](Nc1cc(F)cc(F)c1)c1cc(C(=O)N(C)C)cc2c(=O)cc(N3CCOCC3)oc12 [AZD8186] (first compound max 1 µM, 7x7, partner max 3 µM) ? 0.624

###

Tested on: ST486 (Burkitt's Lymphoma)
Test: combination Emax (second highest fraction inhibited in the dose matrix, 72 h); higher = more inhibition; extreme values may be limits of the assay
Field: combination Emax. Provide a value for each of the compounds that follow.
Reply briefly: the number, and no unit.

// returns reported combination Emax for input C[C@@H](c1ccc2nccn2c1)n1nnc2ncc(-c3cnn(C)c3)nc21 [Savolitinib] + Cc1c2c(nn1C)CSCc1cc(n(C)n1)CSc1cc(c3ccccc3c1)OCCCc1c(C(=O)O)n(C)c3c-2c(Cl)ccc13 [AZD5991] (first compound max 1 µM, 7x7, partner max 1 µM) 0.483

I would be grateful if you could share the reported combination Emax for N#Cc1cnc(Nc2cc(NC[C@H]3CNCCO3)c(C(F)(F)F)cn2)cn1 [SRA737] + C=CCn1c(=O)c2cnc(Nc3ccc(N4CCN(C)CC4)cc3)nc2n1-c1cccc(C(C)(C)O)n1 [AZD1775] (first compound max 10 µM, partner max 1 µM) . 0.987

Tell me the measured combination Emax of CC1(C)CCC(CN2CCN(c3ccc(C(=O)NS(=O)(=O)c4ccc(NCC5CCOCC5)c([N+](=O)[O-])c4)c(Oc4cnc5[nH]ccc5c4)c3)CC2)=C(c2ccc(Cl)cc2)C1 [Venetoclax] + CN(C)CCCOc1ccc(-c2ccc3ncc4c(c3c2)n(C2CCOCC2)c(=O)n4C)cn1 [AZD0156] (first compound max 1 µM, 7x7, partner max 1 µM) , please. 0.77

Give its combination Emax value. Item: O=C(c1cc(Cc2n[nH]c(=O)c3ccccc23)ccc1F)N1CCN(C(=O)C2CC2)CC1 [Olaparib] + COc1nnc2ccc(N3CCC(c4ccc(OCCN5CCN(C)C(=O)[C@H]5C)cc4)CC3)nn12 [AZD5153] (first compound max 10 µM, 7x7, partner max 1 µM) 0.897

###

So I've got a bunch of compounds here, and I need their Bliss excess values.
Test system: NCI-H661 (Non-Small Cell Lung Carcinoma)
Test: Bliss excess, mean over the matrix (fraction); higher = more synergy
Keep it simple and answer with nothing but the number.

Reported Bliss excess for COc1cccc(OCCCN)c1-c1cc(Nc2cnc(C#N)cn2)n[nH]1 [Prexasertib] + C=CCn1c(=O)c2cnc(Nc3ccc(N4CCN(C)CC4)cc3)nc2n1-c1cccc(C(C)(C)O)n1 [AZD1775] (first compound max 1 µM, partner max 1 µM) : what is it? -0.0287

# get_value(readout='Bliss excess', item= CC1(C)CCC(CN2CCN(c3ccc(C(=O)NS(=O)(=O)c4ccc(NCC5CCOCC5)c([N+](=O)[O-])c4)c(Oc4cnc5[nH]ccc5c4)c3)CC2)=C(c2ccc(Cl)cc2)C1 [Venetoclax] + C[C@@H](Nc1cc(F)cc(F)c1)c1cc(C(=O)N(C)C)cc2c(=O)cc(N3CCOCC3)oc12 [AZD8186] (first compound max 1 µM, 7x7, partner max 3 µM) ) -0.0241

Would you kindly share the measured Bliss excess for CN(CCO)CC[C@H](CSc1ccccc1)Nc1ccc(S(=O)(=O)NC(=O)c2ccc(N3CCC([C@@H](O)c4ccccc4-c4ccc(Cl)cc4)CC3)cc2)cc1S(=O)(=O)C(F)(F)F [AZD4320] + C1CN(CCC1(C(=O)N[C@@H](CCO)C2=CC=C(C=C2)Cl)N)C3=NC=NC4=C3C=CN4 [Capivasertib] (first compound max 1 µM, 7x7, partner max 3 µM) ? -0.0347

###

Test system: NCI-H520 (Squamous Cell Lung Carcinoma)
Experiment: Bliss excess, mean over the matrix (fraction); higher = more synergy
Property Measured: Bliss excess
Lab note: write the figure by itself, no unit.

GET /values?readout=Bliss excess&system=NCI-H520 (Squamous Cell Lung Carcinoma)&item= CS(=O)(=O)CCNCc1ccc(-c2ccc3ncnc(Nc4ccc(OCc5cccc(F)c5)c(Cl)c4)c3c2)o1 [Lapatinib] + Cn1cnc2c(F)c(Nc3ccc(Br)cc3Cl)c(C(=O)NOCCO)cc21 [Selumetinib] (first compound max 10 µM, 7x7, partner max 10 µM) -0.034

Find Bliss excess (NCI-H520 (Squamous Cell Lung Carcinoma)) for the entry CN(CCO)CC[C@H](CSc1ccccc1)Nc1ccc(S(=O)(=O)NC(=O)c2ccc(N3CCC([C@@H](O)c4ccccc4-c4ccc(Cl)cc4)CC3)cc2)cc1S(=O)(=O)C(F)(F)F [AZD4320] + Nc1ccn([C@@H]2O[C@H](CO)[C@@H](O)C2(F)F)c(=O)n1 [Gemcitabine] (first compound max 1 µM, 7x7, partner max 0.3 µM) -0.0178

Field: Bliss excess (NCI-H520 (Squamous Cell Lung Carcinoma)). Entry: C[C@@H](c1ccc2nccn2c1)n1nnc2ncc(-c3cnn(C)c3)nc21 [Savolitinib] + CC1(C)CCC(CN2CCN(c3ccc(C(=O)NS(=O)(=O)c4ccc(NCC5CCOCC5)c([N+](=O)[O-])c4)c(Oc4cnc5[nH]ccc5c4)c3)CC2)=C(c2ccc(Cl)cc2)C1 [Venetoclax] (first compound max 1 µM, 7x7, partner max 1 µM) -0.0333

Ref: the supplement of paper PMC11061612
